biological target: benzodiazepine site on the GABAA receptor; assay: [3H]flunitrazepam binding to rat cortex; details: rat cortex; read-out: IC50, displacement of [3H]flunitrazepam binding
reported.property: pIC50
Kindly note that pIC50 refers to -log10 of the concentration in mol/L and answer with the value alone.

Example cases with answers are listed next.
Q) Any idea what pIC50 was measured for CC(=O)N(C)c1cccc(-c2ccnc3c(C(=O)c4cccs4)cnn23)c1 [Compound 1] ?
A) 8.01

Q) State the recorded pIC50 for this entry: Cc1ccc(-c2nc3ccc(C)cn3c2CC(=O)N(C)C)cc1 [zolpidem]
A) 7.59

Q) Query (compound): CC(=O)Nc1cccc(-c2ccnc3c(C(=O)c4cccs4)cnn23)c1 [desmethyl metabolite of Compound 1] ; field requested: pIC50
A) 6.14

Q) Recorded pIC50 of CN1C(=O)CN=C(c2ccccc2)c2cc(Cl)ccc21 [diazepam] , please.
A) 7.77

Q) State the recorded pIC50 for this entry: CN1C(=O)CN=C(c2ccccc2F)c2cc([N+](=O)[O-])ccc21 [flunitrazepam]
A) 6.94

Please examine the following record next.
Q) Entry under review: Cc1nnc2n1-c1ccc(Cl)cc1C(c1ccccc1Cl)=NC2 [triazolam, reference compound] . Reported pIC50?
A) 9.30
